target under test: T1, recombinant canine OX40L ECD-TNCc-HIS protein (canine)
T1 construct: also called Trimeric OX40L probe (HIS tag); trimeric canine OX40L
T1 chain: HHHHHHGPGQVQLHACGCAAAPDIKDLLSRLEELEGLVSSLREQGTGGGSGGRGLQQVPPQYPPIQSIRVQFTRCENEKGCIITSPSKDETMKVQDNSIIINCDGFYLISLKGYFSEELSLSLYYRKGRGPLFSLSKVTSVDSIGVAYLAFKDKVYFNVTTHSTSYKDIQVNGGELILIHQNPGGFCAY
protocol details: SPR Koff (kd2)
property name: koff (s⁻¹)
Please give a number only; it is taken to be in s⁻¹.

{"columns": ["binder", "koff (s⁻¹)"],
 "data": [
  ["PMX042 (antibody, V domains shown, also called PMX42) VH: EVQLVESGGDLVKPGGSLRLSCVASGFTFSSYHMSWVRQAPGKGLQWVAYITSGGSTTSYADAVKGRFTISRDNAKNTLYLQMDSLRADDTAVYYCASDLVLLLGGADYWGQGTLVTVSS VL: SYELTQPPSVNVTLRETAHITCGGDSIGRKYVQWIQQHPGQAPVVIIYKDYNRPTGIPERFSGANSGNTATLTISGALAEDEADYYCQVGDSGTKAVFGGGTHLTVL", 0.00056]
]}

Lookup: Name the recorded koff of the binder listed here: PMX036 (antibody, V domains shown, also called PMX36) VH: EVQLVESGGDLVKPGGSLRLSCVASGFTFSSYHMSWVRQAPGKGLQWVAYITSGGRTTSYADAVKGRFTISRDNAKNTLYLQMNSLRAEDTAVYYCASDLVLVLGGADYWGQGTLVTVSS VL: SYELTQPPSVNVTLRETAHITCGGDSIGRKYVQWIQQNPGQAPVVIIYKDTNRPTGIPERFSGANSGNTATLTISGALAEDEADYYCQVGDSGTKAVFGGGTHLTVL
Found: 0.0522
